GI50 values by entry
assay target: BaF3 KIF5B-RET_G810R (Homo sapiens, UniProt P07949, G810R, cells depend on it)
Construct: fused on or other part: P33176 (Kinesin-1 heavy chain)
Sequence (P07949 whole entry G810R, the tested form may be a part): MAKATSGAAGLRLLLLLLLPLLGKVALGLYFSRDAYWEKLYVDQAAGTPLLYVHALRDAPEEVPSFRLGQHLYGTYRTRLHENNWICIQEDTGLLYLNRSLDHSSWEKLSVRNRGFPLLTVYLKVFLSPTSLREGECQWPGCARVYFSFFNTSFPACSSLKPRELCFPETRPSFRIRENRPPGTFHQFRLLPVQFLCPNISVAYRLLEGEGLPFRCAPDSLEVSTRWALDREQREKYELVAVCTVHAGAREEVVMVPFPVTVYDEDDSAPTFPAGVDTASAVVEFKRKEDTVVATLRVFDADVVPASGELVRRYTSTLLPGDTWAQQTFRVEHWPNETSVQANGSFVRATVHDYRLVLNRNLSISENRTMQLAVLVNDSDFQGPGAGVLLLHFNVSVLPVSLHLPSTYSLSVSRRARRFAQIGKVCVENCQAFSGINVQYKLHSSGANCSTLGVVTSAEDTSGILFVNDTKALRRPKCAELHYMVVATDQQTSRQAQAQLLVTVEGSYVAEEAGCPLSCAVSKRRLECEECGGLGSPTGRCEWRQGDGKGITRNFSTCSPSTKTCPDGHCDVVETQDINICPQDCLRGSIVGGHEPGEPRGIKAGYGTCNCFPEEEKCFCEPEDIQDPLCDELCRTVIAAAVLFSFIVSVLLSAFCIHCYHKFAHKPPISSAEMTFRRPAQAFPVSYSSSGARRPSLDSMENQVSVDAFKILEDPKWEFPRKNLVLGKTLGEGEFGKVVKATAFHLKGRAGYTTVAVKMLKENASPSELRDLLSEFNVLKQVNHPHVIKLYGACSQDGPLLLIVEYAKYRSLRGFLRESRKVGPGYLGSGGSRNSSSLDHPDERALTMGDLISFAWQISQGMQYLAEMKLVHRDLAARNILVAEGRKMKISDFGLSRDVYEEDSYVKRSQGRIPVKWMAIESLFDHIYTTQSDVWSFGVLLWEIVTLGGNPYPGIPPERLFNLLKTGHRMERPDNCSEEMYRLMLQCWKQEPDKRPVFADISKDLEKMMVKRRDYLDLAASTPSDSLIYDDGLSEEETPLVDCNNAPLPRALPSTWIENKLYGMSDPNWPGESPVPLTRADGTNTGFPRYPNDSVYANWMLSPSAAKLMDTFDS
assay overview: Cell proliferation assay (CellTiter-Glo, 72 hours)
Assay type: cell-based
conditions used: anti-cell proliferation, read-out: BaF3 KIF5B-RET_G810R IC50

item smiles: C[C@H]1CCNC(=O)c2cnn3cc4c(nc23)N(Cc2cc(F)cnc2O1)[C@@H]1CCC[C@@H]1O4
assay target: BaF3 KIF5B-RET_G810R (Homo sapiens, UniProt P07949, G810R, cells depend on it)
GI50, nM: 8.7
--
item smiles: O=C1NC[C@@H](O)COc2ncc(F)cc2CN2c3nc4c1cnn4cc3O[C@H]1CCC[C@H]12
assay target: BaF3 KIF5B-RET_G810R (Homo sapiens, UniProt P07949, G810R, cells depend on it)
GI50, nM: 396
--
item smiles: O=C1NCCCOc2ncc(F)cc2CN2c3nc4c1cnn4cc3O[C@H]1CCC[C@H]12
assay target: BaF3 KIF5B-RET_G810R (Homo sapiens, UniProt P07949, G810R, cells depend on it)
GI50, nM: 78

====

assay target: BaF3 KIF5B-RET_V804M (Homo sapiens, UniProt P07949, V804M, cells depend on it)
Construct: fused on or other part: P33176 (Kinesin-1 heavy chain)
Sequence (P07949 whole entry V804M, the tested form may be a part): as the sequence (P07949 whole entry G810R, the tested form may be a part) above, with V804M, R810G counted along it
assay overview: Cell proliferation assay (CellTiter-Glo, 72 hours)
Assay type: cell-based
conditions used: anti-cell proliferation, read-out: BaF3 KIF5B-RET_V804M IC50

item smiles: C[C@H]1CNC(=O)c2cnn3cc4c(nc23)N(Cc2cc(F)cnc2O1)[C@H]1CC[C@H]1O4
assay target: BaF3 KIF5B-RET_V804M (Homo sapiens, UniProt P07949, V804M, cells depend on it)
unit text: µM
relation qualifier: >
GI50: 10

item smiles: O=C1NC2(CCC2)COc2ncc(F)cc2CN2c3nc4c1cnn4cc3O[C@H]1CCC[C@H]12
assay target: BaF3 KIF5B-RET_V804M (Homo sapiens, UniProt P07949, V804M, cells depend on it)
unit text: µM
relation qualifier: =
GI50: 1.76

item smiles: O=C1NCC2(CCC2)COc2ncc(F)cc2CN2c3nc4c1cnn4cc3O[C@H]1CCC[C@H]12
assay target: BaF3 KIF5B-RET_V804M (Homo sapiens, UniProt P07949, V804M, cells depend on it)
unit text: µM
relation qualifier: =
GI50: 3

item smiles: O=C1NCCCOc2ncc(F)cc2CN2c3nc4c1cnn4cc3O[C@H]1CCC[C@H]12
assay target: BaF3 KIF5B-RET_V804M (Homo sapiens, UniProt P07949, V804M, cells depend on it)
unit text: µM
relation qualifier: =
GI50: 3.07
